Measured MIC80 accompanies every entry in the list below.
System: Cryptococcus neoformans
test_protocol: Antimicrobial activity against Cryptococcus neoformans ATCC 52657
Format: functional
Record the result as a number with its unit.

Answered cases to consult:
Cc1cc(C)cc(CS(=O)(=O)[O-])c1.N[n+]1ccc2ccnc3c2c1-c1ccccc1-3 : 50 µg/mL
C[n+]1ccc2c3c(nc4ccccc42)-c2ccccc2-c31.Cc1ccc(S(=O)(=O)[O-])cc1 : 6.25 µg/mL

Continue with the next compound.
Ask: # MIC80 lookup, item Cc1cc2c3c(nc4ccccc42)-c2ccccc2-c3[n+]1C.[I-]
Result: 3.12 µg/mL

====

test_protocol: Cytotoxicity against human SKOV3 cells assessed as cell growth inhibition after 48 hrs by neutral red dye based assay
Type: functional
protocol_conditions: SK-OV-3, 48 h
IC50 strictly under 1 µg/mL means satisfied; at 1 µg/mL or over means not satisfied.

Cc1cc2cc[n+](Cc3ccccc3)c3c2c(n1)-c1ccccc1-3.[Br-] : not satisfied
FC(F)(F)c1ccc(C[n+]2ccc3ccnc4c3c2-c2ccccc2-4)cc1.[Br-] : satisfied
C[n+]1c2c3c(nc(-c4ccccc4)cc3c3ccccc31)-c1ccccc1-2.[I-] : not satisfied
Clc1cccc(C[n+]2ccc3ccnc4c3c2-c2ccccc2-4)c1.[Br-] : satisfied
Fc1ccc(C[n+]2ccc3ccnc4c3c2-c2ccccc2-4)cc1.[Br-] : not satisfied
C[n+]1ccc2c3c(nc4cc5c(cc42)OCO5)-c2ccccc2-c31.[I-] : not satisfied
CCOC(=O)C[n+]1ccc2ccnc3c2c1-c1ccccc1-3.[Br-] : not satisfied
Brc1cccc(C[n+]2ccc3ccnc4c3c2-c2ccccc2-4)c1.[Br-] : satisfied
Fc1ccc2c(c1)-c1c3c-2nccc3cc[n+]1Cc1ccccc1.[Br-] : satisfied
COc1cccc2c1C(=O)c1c(O)c3c(c(O)c1C2=O)C[C@@](O)(C(=O)CO)C[C@@H]3O[C@H]1C[C@H](N)[C@H](O)[C@H](C)O1 : not satisfied

Ask: Dear colleague, could you confirm whether IC50 of C[n+]1ccc2ccnc3c2c1-c1ccccc1-3.[I-] falls below 1 µg/mL? Thanks.
Result: not satisfied

Ask: Dear colleague, could you confirm whether IC50 of c1ccc2c(c1)-c1nccc3ccnc-2c13 falls below 1 µg/mL? Thanks.
Result: not satisfied

Ask: Dear colleague, could you confirm whether IC50 of CC[n+]1ccc2c3c(nc4ccccc42)-c2ccccc2-c31.[I-] falls below 1 µg/mL? Thanks.
Result: not satisfied

Ask: Dear colleague, could you confirm whether IC50 of [Br-].c1ccc(C[n+]2ccc3cc(-c4ccccc4)nc4c3c2-c2ccccc2-4)cc1 falls below 1 µg/mL? Thanks.
Result: satisfied

Ask: Dear colleague, could you confirm whether IC50 of Fc1ccc(C[n+]2ccc3ccnc4c3c2-c2ccccc2-4)c(F)c1.[Br-] falls below 1 µg/mL? Thanks.
Result: not satisfied

Ask: Dear colleague, could you confirm whether IC50 of Cc1ccc2c(c1)-c1c3c-2nccc3cc[n+]1Cc1ccccc1.[Br-] falls below 1 µg/mL? Thanks.
Result: satisfied

====

target_entity: DNA topoisomerase 1 (Homo sapiens)
Sequence (P11387 whole entry): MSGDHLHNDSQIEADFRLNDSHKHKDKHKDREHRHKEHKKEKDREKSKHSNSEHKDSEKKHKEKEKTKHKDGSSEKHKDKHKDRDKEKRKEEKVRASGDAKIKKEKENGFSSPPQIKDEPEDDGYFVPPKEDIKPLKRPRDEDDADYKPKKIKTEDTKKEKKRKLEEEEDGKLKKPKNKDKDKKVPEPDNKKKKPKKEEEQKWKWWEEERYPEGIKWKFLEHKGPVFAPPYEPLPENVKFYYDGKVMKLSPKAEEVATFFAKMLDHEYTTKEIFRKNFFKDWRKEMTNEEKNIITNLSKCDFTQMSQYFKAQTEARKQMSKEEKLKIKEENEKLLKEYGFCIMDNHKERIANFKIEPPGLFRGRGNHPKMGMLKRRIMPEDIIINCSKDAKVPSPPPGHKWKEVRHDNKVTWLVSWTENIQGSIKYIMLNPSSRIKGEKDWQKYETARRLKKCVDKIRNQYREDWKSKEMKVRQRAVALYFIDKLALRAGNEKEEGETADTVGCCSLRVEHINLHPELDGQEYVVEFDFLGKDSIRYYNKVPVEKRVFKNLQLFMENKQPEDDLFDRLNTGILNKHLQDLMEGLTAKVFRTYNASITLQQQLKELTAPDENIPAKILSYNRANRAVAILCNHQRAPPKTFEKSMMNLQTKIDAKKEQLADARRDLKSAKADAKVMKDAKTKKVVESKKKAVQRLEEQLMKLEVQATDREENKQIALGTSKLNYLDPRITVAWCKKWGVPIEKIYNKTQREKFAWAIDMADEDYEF
Measured pIC50 accompanies every entry in the list below.
On this scale, pIC50 is minus log10 of a concentration expressed in M (mol/L).

[Br-].c1ccc(C[n+]2ccc3cc(-c4ccccc4)nc4c3c2-c2ccccc2-4)cc1 : 5.01

Continue with the next compound.
Ask: # pIC50 lookup, item COc1ccc2c(c1)-c1c3c-2nccc3cc[n+]1Cc1ccccc1.[Br-]
Result: 4.91

The reported measurements were obtained from ChEMBL document CHEMBL3865847.
